Biological target: HLA-B*08:01
Experiment: IEDB peptide-MHC binding, purified MHC/competitive/fluorescence; bounds were set here for any values at or beyond the usual limits of such assays
Conditions: source organism: Variola virus
pIC50: −log10 of the molar value.
value type: pIC50

[[record]]
entry_sequence = "VARKHHTKI"
value_measured = "≤ 3.46"


---

Biological target: HLA-B*18:01
Assay: IEDB peptide-MHC binding, purified MHC/direct/fluorescence; filed as Kd, often an IC50 or EC50 that approximates it; bounds were set here for any values at or beyond the usual limits of such assays
Conditions: source organism: Sudan ebolavirus - Maleo (1979)
value type: Kd

[[record]]
entry_sequence = "MHYKLDEVL"
value_measured = "≥ 20 µM"


---

Target: HLA-C*14:02
Assay: IEDB peptide-MHC binding, purified MHC/direct/fluorescence; filed as Kd, often an IC50 or EC50 that approximates it; bounds were set here for any values at or beyond the usual limits of such assays
Conditions: source organism: Yersinia enterocolitica
pKd: −log10 of the molar value.
value type: pKd

[[record]]
entry_sequence = "YIFRNTINM"
value_measured = 6.92


---

Target: HLA-A*03:01
Assay: IEDB peptide-MHC binding, purified MHC/direct/fluorescence; filed as Kd, often an IC50 or EC50 that approximates it; bounds were set here for any values at or beyond the usual limits of such assays
Settings: source organism: Influenza A virus (A/duck/Mongolia/47/2001(H7N1))
value type: Kd

[[record]]
entry_sequence = "FLKDVMESM"
experimental_system = "HLA-A*03:01"
value_type = "Kd"
value_measured = "≥ 20 µM"


---

Target: HLA-B*46:01
Assay: IEDB peptide-MHC binding, purified MHC/competitive/fluorescence; filed as Kd, often an IC50 or EC50 that approximates it; bounds were set here for any values at or beyond the usual limits of such assays
Conditions: source organism: Escherichia coli E110019
pKd: −log10 of the molar value.
value type: pKd

[[record]]
entry_sequence = "RAFWGQVQK"
value_type = "pKd"
value_measured = "≤ 4.70"


---

Target: HLA-B*35:01
Assay: IEDB peptide-MHC binding, purified MHC/competitive/radioactivity; filed as Kd, often an IC50 or EC50 that approximates it; bounds were set here for any values at or beyond the usual limits of such assays
Conditions: source organism: Mammarenavirus guanaritoense
value type: Kd

[[record]]
entry_sequence = "LPIFSEFVL"
experimental_system = "HLA-B*35:01"
value_measured = "8.59 nM"


---

Target: HLA-C*06:02
Assay: IEDB peptide-MHC binding, purified MHC/competitive/fluorescence; filed as Kd, often an IC50 or EC50 that approximates it; bounds were set here for any values at or beyond the usual limits of such assays
Conditions: source organism: Mus musculus
value type: Kd (µM)

[[record]]
entry_sequence = "GVPKTHLEL"
value_measured = 1.35


---

Molecular target: HLA-A*68:02
Assay: IEDB peptide-MHC binding, purified MHC/competitive/radioactivity; filed as Kd, often an IC50 or EC50 that approximates it; bounds were set here for any values at or beyond the usual limits of such assays
Conditions: source organism: Dengue virus 2 Peru/IQT2913/1996
value type: Kd (nM)

[[record]]
entry_sequence = "RTAGMIIMLI"
experimental_system = "HLA-A*68:02"
value_measured = 61.6


---

Target: HLA-A*68:01
Assay: IEDB peptide-MHC binding, purified MHC/competitive/radioactivity; filed as Kd, often an IC50 or EC50 that approximates it; bounds were set here for any values at or beyond the usual limits of such assays
Details: source organism: Mammarenavirus lassaense
value type: Kd (µM)

[[record]]
entry_sequence = "TCQGSDDIKK"
value_type = "Kd"
value_measured = 4.45


---

Biological target: HLA-B*45:06
Experiment: IEDB peptide-MHC binding, purified MHC/competitive/fluorescence; filed as Kd, often an IC50 or EC50 that approximates it; bounds were set here for any values at or beyond the usual limits of such assays
Conditions: source organism: Yersinia pestis CO92
value type: Kd

[[record]]
entry_sequence = "YSFSRAYTL"
value_measured = "≥ 5 µM"


---

Biological target: HLA-A*31:01
Assay: IEDB peptide-MHC binding, purified MHC/competitive/radioactivity; filed as Kd, often an IC50 or EC50 that approximates it; bounds were set here for any values at or beyond the usual limits of such assays
Conditions: source organism: Mammarenavirus juninense
pKd: −log10 of the molar value.
value type: pKd

[[record]]
entry_sequence = "SKQYIHCFRK"
experimental_system = "HLA-A*31:01"
value_type = "pKd"
value_measured = 6.05


---

Molecular target: HLA-B*40:01
Experiment: IEDB peptide-MHC binding, purified MHC/competitive/radioactivity; filed as Kd, often an IC50 or EC50 that approximates it; bounds were set here for any values at or beyond the usual limits of such assays
Settings: source organism: SARS coronavirus Tor2
pKd: −log10 of the molar value.
value type: pKd

[[record]]
entry_sequence = "HECFVKRVDW"
experimental_system = "HLA-B*40:01"
value_type = "pKd"
qualifier_operator = "≤"
value_measured = 4.16

[[record]]
entry_sequence = "WEPEFYEAMY"
experimental_system = "HLA-B*40:01"
value_type = "pKd"
qualifier_operator = "="
value_measured = 5.27

[[record]]
entry_sequence = "HEDLMAAYV"
experimental_system = "HLA-B*40:01"
value_type = "pKd"
qualifier_operator = "="
value_measured = 5.92

[[record]]
entry_sequence = "KELSPRWYF"
experimental_system = "HLA-B*40:01"
value_type = "pKd"
qualifier_operator = "="
value_measured = 6.05

[[record]]
entry_sequence = "KDYMSLSEQL"
experimental_system = "HLA-B*40:01"
value_type = "pKd"
qualifier_operator = "="
value_measured = 5.21

[[record]]
entry_sequence = "IDYVPLKSAT"
experimental_system = "HLA-B*40:01"
value_type = "pKd"
qualifier_operator = "≤"
value_measured = 4.16

[[record]]
entry_sequence = "SELVIGAVI"
experimental_system = "HLA-B*40:01"
value_type = "pKd"
qualifier_operator = "="
value_measured = 7.05

[[record]]
entry_sequence = "EETFKLSYGI"
experimental_system = "HLA-B*40:01"
value_type = "pKd"
qualifier_operator = "="
value_measured = 5.45

[[record]]
entry_sequence = "VETFYPKLQA"
experimental_system = "HLA-B*40:01"
value_type = "pKd"
qualifier_operator = "≤"
value_measured = 4.16

[[record]]
entry_sequence = "TEGLCVDIPG"
experimental_system = "HLA-B*40:01"
value_type = "pKd"
qualifier_operator = "≤"
value_measured = 4.16

[[record]]
entry_sequence = "KETLYRIDG"
experimental_system = "HLA-B*40:01"
value_type = "pKd"
qualifier_operator = "≤"
value_measured = 4.34

[[record]]
entry_sequence = "EEAIRHVRAW"
experimental_system = "HLA-B*40:01"
value_type = "pKd"
qualifier_operator = "≤"
value_measured = 4.16

[[record]]
entry_sequence = "NELSLALGL"
experimental_system = "HLA-B*40:01"
value_type = "pKd"
qualifier_operator = "="
value_measured = 6.56

[[record]]
entry_sequence = "AEIVDTVSAL"
experimental_system = "HLA-B*40:01"
value_type = "pKd"
qualifier_operator = "="
value_measured = 8.94

[[record]]
entry_sequence = "EEHFVETVSL"
experimental_system = "HLA-B*40:01"
value_type = "pKd"
qualifier_operator = "="
value_measured = 8.04


---

Target: HLA-A*02:12
Test: IEDB peptide-MHC binding, purified MHC/direct/fluorescence; filed as Kd, often an IC50 or EC50 that approximates it; bounds were set here for any values at or beyond the usual limits of such assays
Conditions: source organism: Choclo virus
value type: Kd

[[record]]
entry_sequence = "KACDLAMCY"
value_type = "Kd"
value_measured = "≥ 20 µM"


---

Item-by-item account of pKd
Target: HLA-A*03:01
Assay: IEDB peptide-MHC binding, purified MHC/competitive/radioactivity; filed as Kd, often an IC50 or EC50 that approximates it; bounds were set here for any values at or beyond the usual limits of such assays
Settings: source organism: Dengue virus 4 Philippines/H241/1956
pKd: −log10 of the molar value.
value type: pKd

[[record]]
entry_sequence = "TVGPWHLGK"
value_measured = 7.77

[[record]]
entry_sequence = "KTFDTEYPK"
value_measured = 7.58


---

Target: HLA-A*02:01
Assay: IEDB peptide-MHC binding, purified MHC/direct/fluorescence; filed as Kd, often an IC50 or EC50 that approximates it; bounds were set here for any values at or beyond the usual limits of such assays
Details: source organism: Brucella abortus 2308
value type: Kd

[[record]]
entry_sequence = "RMIESRMSK"
experimental_system = "HLA-A*02:01"
value_type = "Kd"
value_measured = "≥ 20 µM"


---

Biological target: HLA-A*26:01
Assay: IEDB peptide-MHC binding, purified MHC/competitive/fluorescence; filed as Kd, often an IC50 or EC50 that approximates it; bounds were set here for any values at or beyond the usual limits of such assays
Details: source organism: Hantaan virus 76-118
value type: Kd

[[record]]
entry_sequence = "IRKPKHLYV"
value_type = "Kd"
value_measured = "≥ 20 µM"

